system: NCI-H23; experiment: NCI tumour cell line growth inhibition, 48 h
Structures can show the parent of a compound that is named as a salt. The source made the active and inactive calls. Cut-off read from the data, not from the text of the source: active = GI50 up to about 1.1 µM and inactive = higher.
Please state which outcome applies, choosing from YES for active, NO for inactive

Consider the worked cases shown below.
COMPOUND: COC(=O)C(=O)C(C(=O)C(=O)Nc1ccccc1C(N)=O)c1nc2ccc([N+](=O)[O-])cc2nc1O (stereo unspecified)
SYSTEM_TESTED: NCI-H23
DISCRETE_LABEL: NO

COMPOUND: O=C(O)Cc1cc(=O)oc2cc(O)c(Cl)cc12
SYSTEM_TESTED: NCI-H23
DISCRETE_LABEL: NO

COMPOUND: OCC1OC(OCC(O)C(O)C(O)C(/C=N/Nc2ccccc2)=N/Nc2ccccc2)C(O)C(O)C1O (stereo unspecified)
SYSTEM_TESTED: NCI-H23
DISCRETE_LABEL: NO

COMPOUND: Oc1c(Cl)c(Cl)c(O)c(CCNc2nccs2)c1Cl
SYSTEM_TESTED: NCI-H23
DISCRETE_LABEL: NO

COMPOUND: O=C1OC(c2ccccc2)=N/C1=C\c1cc(Cl)ccc1Cl
SYSTEM_TESTED: NCI-H23
DISCRETE_LABEL: NO

Exercise: Called result for O=C1Nc2ccccc2/C1=N/NC(=S)Nc1ccccc1Cl
Key: NO

Exercise: Try the compound COc1ccc(-c2cc(=O)c3c(O)cc(O)cc3o2)c(OC)c1OC
Key: NO

Exercise: Another compound: O=C1NC2C(=O)N(Cc3ccccc3)C(=O)C2N1 (stereo unspecified)
Key: NO

Exercise: Note, next up: C#Cc1cccc(Nc2ncnc3cc(OCCOC)c(OCCOC)cc23)c1 [ERLOTINIB HYDROCHLORIDE]
Key: NO

Exercise: Item: CCOC(=O)CCC(NC(=O)c1ccc(Nc2nc3ccc(C(F)(F)F)cc3nc2-c2ccccc2)cc1)C(=O)OCC (stereo unspecified)
Key: NO

Exercise: Request: CN(C)c1cccc2c(S(=O)(=O)NCCCNCCN)cccc12
Key: NO

Exercise: Cool, now NC(CSc1nc2ccccn2c1[N+](=O)[O-])C(=O)O (stereo unspecified)
Key: NO

Exercise: // next record CC(C(=O)O)C1Nc2ccccc2NC1=O (stereo unspecified)
Key: NO

Exercise: Same lookup for CC(=O)Oc1cc(C(F)(F)F)ccc1C(=O)OC1(C)OC(=O)c2ccc(C(F)(F)F)cc2O1 (stereo unspecified) , please.
Key: NO

Exercise: Thanks! And CN(C)CCNS(=O)(=O)N(C)C ?
Key: NO

Exercise: What do you get for FC(F)(F)c1ccc(/N=C/C=C(/Nc2ccc(C(F)(F)F)cc2)c2ccc(Cl)cc2)cc1 ?
Key: NO

Exercise: // query: CCc1nc(N)nc(N)c1-c1ccc(Cl)cc1 [PYRIMETHAMINE]
Key: NO

Exercise: Subsequent entry: C=CCN1C(=O)/C(=C/c2ccccc2)N=C1SC1OC(COC(C)=O)C(OC(C)=O)C(OC(C)=O)C1OC(C)=O (stereo unspecified)
Key: NO

Exercise: Please give the result for COc1ccc2c(c1OC)C(C(Cl)(Cl)Cl)N1CCc3cc4c(cc3C1=C2)OCO4 (stereo unspecified) too.
Key: NO

Exercise: Similarly, O=C1c2ccccc2C(=O)c2c(OCCOCCO)cccc21 ?
Key: NO

Exercise: Follow-up entry: Cc1ccc(Oc2ccc([N+](=O)[O-])cc2[N+](=O)[O-])c(C)c1
Key: NO

Exercise: Similarly, O=C1CCCC2(c3ccccc3)Nc3ccccc3N12 (stereo unspecified) ?
Key: NO

Exercise: Could you do the same for COc1ccc(C2N3CCCCC3[C@@H]3c4[nH]c5ccccc5c4CCN23)c(OC)c1 (stereo partly specified) , please?
Key: NO

Exercise: What about this compound? CCCCCC/C=C\CCCCCCCCCc1cccc(O)c1C(=O)O [GINKGOLIC ACID 17:1]
Key: NO

Exercise: # iterate: O=C(CC1SC(Nc2ccccc2Cl)=NC1=O)Nc1ccc(Cl)cc1Cl (stereo unspecified)
Key: NO

Exercise: Record: O=C(O)CSC(CC(=O)c1ccc(Cl)cc1)c1ccc(Cl)cc1 (stereo unspecified)
Key: NO

The values you see were collected from ChEMBL document CHEMBL1201862.
